- Tested on: MS2 coat protein
- measurement_protocol: apparent KD of MS2 coat protein, switch ON state; designed switch direction (-1 OFF switch, 1 ON switch): 1; higher = weaker reporter binding
- test_conditions: FMN input: 0 or 200 uM; Eterna round: R93 (includes R88 designs)
observation_type: apparent KD of MS2 coat protein (nM)
Please state the figure in nM; there is no need to write the unit.

sequence_data | units | apparent KD of MS2 coat protein
AGGAAACAUGAGGAUCACCCAUGUAAGAUAUACACAGGAUAUGCGAAAAGAAACAAAGAAGCAGAAGGGUGGAAAA [75%, Ex sub1, 11] | nM | 16.5
GAAGACAUAGUUCAGGAUAUGGGAAUAGUCACAUGAGGAUCACCCAUGUGCAUUUAUAUGCGCGCUCAGAAGGGAGGUAGAUAUA [SameState2 Malc#19] | nM | 21
AAUAUAUUAAGUGAGGAUAUCGAGAAAAAAACAUGAGGAUCACCCAUGUGGGAAACAUGGUAGGGUGAGAAGGUACUUAAUAUAU [Samwise Clockwise 22 - Jieux - Same State 2] | nM | 270
GAAAAACAUGAGGAUCACCCAUGUAGAAAUAUGGGAGGAUAUACGAAGACGAAAGUCAAAGUAGAAGGCCUAAGAA [Mat - Same State 1 - Eli mod - D109] | nM | 21.7
AGAAAUAAAAGGCAGGAUAUCCAAAAAAAAACAUGAGGAUCACCCAUGUAAAAAAAAAAAAAAUGGGAGAAGGGCCAAAUAAAGA [Mat - Same State 2 - Eli mod - D88] | nM | 16

In plain terms, AUAAGACAUGAGGAUCACCCAUGUAUAAGAGCAUGAGGAUAUAUAAAAAGAAAAAGGAGAAUAGAAGGCAUAGUUG [JR_SS001_Sub1221] has a documented apparent KD of MS2 coat protein of 84.1

* * *

- Tested on: MS2 coat protein
- measurement_protocol: apparent KD of MS2 coat protein; designed switch direction (-1 OFF switch, 1 ON switch): -1; higher = weaker reporter binding
- test_conditions: input ligand: FMN 200 uM
Decision: apparent KD of MS2 coat protein >= 30 nM yields T, all other cases yield F.

sequence_data | category_label
UUAAUUAGCAGACUAAUACCUCACAUGAGGAUCACCCAUGUGCAGGAUAUCAGCUCGUUUAGAGCUGAGAAGGGCACUGUCUGC [ExNG3/12-A2] (Eterna round: R96, puzzle: Exclusion NG 3) | F

Q) Is apparent KD of MS2 coat protein for UUUACAAGCUUUUGAUCCCACAUGAGGAUCACCCAUGUUGCUGCCGUGAGGUAGCUUUUAACAAAUGCUCGUCUUAU [JL TOV1 3.37] (Eterna round: R97, puzzle: Sensor, turn-off variant 1) at or above 30 nM?
A) T

Q) Tell me whether apparent KD of MS2 coat protein is at least 30 nM here: UGAUCACAUGAGGAUCACCCAUGUCAGGAUAUCUACAUUGAAGCUUCGGCUUCAAUGUAGAGAAGGGAUAUAAU [E1/5-B1] (Eterna round: R97, puzzle: Exclusion 1)
A) T

Q) Given the entry UCGCAGUUAGGAUAUACAUGAGGAUCACCCAUGUGGCUCCGGACCGGCAACGAAUCACGUAGAAGGGACUGCAG [Eternabot (Original) Solution 24] (Eterna round: R97, puzzle: Exclusion 3) , answer whether its apparent KD of MS2 coat protein meets or surpasses 30 nM.
A) F

Q) # check: apparent KD of MS2 coat protein of CUAAAAGUCGAGGAUAUGCACCGGCUCGCUGACGCAGAAGGCGACACAUGAGGAUCACCCAUGUCGGUACGCGA [salish99_ex6_r004_451] (Eterna round: R97, puzzle: Exclusion 6) is greater than or equal to 30 nM
A) T
